- MEASURED_TARGET: recombinant human CETP protein (Homo sapiens (Human))
- Sequence (P11597 18-493): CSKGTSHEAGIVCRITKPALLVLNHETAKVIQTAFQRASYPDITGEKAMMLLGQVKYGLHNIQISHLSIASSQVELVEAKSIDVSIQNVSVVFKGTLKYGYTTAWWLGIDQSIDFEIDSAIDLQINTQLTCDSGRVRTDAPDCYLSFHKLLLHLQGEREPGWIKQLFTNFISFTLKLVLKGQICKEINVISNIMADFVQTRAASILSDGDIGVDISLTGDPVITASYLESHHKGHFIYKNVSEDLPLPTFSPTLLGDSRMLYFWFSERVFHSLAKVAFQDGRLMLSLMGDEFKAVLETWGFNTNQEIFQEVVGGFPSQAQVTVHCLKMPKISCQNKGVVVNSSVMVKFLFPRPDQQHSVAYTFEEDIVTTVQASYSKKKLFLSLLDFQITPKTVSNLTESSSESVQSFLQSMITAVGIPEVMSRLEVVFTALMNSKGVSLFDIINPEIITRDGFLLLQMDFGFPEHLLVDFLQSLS
- PROCEDURE_SUMMARY: Test of CETP inhibition activity (in vitro, buffer-based)
- Type: biochemical
- SETTINGS: [14C]-cholesteryl ester transfer from reconstituted HDL to acceptor lipoprotein, 37° C., 60 minutes, PBS buffer, dihydrobromide
Structures can show the parent of a compound that is named as a salt.
I'd be grateful if you could share measured IC50 for these entries.
Answers are plain numbers, in nM.

{"COMPOUND": "CC1(C)Cc2nc(C3CCN(c4ncc(OCC(C)(CO)CO)cn4)CC3)c([C@@H](F)c3ccc(C(F)(F)F)cc3)c(C3CCC(F)(F)CC3)c2[C@@H](O)C1 [Example 3, dihydrobromide]", "IC50 (nM)": 39.3}
{"COMPOUND": "CC1(C)Cc2nc(C3CCN(c4ncc(-c5cccc(C(=O)O)c5)cn4)CC3)c([C@@H](F)c3ccc(C(F)(F)F)cc3)c(C3CCC(F)(F)CC3)c2[C@@H](O)C1 [Example 21, dihydrobromide]", "IC50 (nM)": 279}

Any idea what IC50 came out for CC1(C)Cc2nc(C3CCN(c4ncc(OCCCS(C)(=O)=O)cn4)CC3)c([C@@H](F)c3ccc(C(F)(F)F)cc3)c(C3CCC(F)(F)CC3)c2[C@@H](O)C1 [Example 18, dihydrobromide] on recombinant human CETP protein (Homo sapiens (Human))? 18.9

The reported measurements were obtained from patent US9321747B2.
